- ASSAY TARGET: IP receptor (Homo sapiens)
- Sequence (P43119 whole entry): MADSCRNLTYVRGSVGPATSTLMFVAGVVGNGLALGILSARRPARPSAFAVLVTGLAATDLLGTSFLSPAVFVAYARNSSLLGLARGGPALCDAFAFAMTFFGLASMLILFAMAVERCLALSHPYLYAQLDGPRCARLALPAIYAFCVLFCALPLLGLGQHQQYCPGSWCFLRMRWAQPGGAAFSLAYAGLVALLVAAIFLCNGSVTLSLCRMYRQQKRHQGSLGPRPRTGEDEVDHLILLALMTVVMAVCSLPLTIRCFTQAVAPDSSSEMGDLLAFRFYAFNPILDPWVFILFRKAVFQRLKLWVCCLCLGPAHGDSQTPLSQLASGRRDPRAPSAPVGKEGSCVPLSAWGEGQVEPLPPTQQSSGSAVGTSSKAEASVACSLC
- PROTOCOL SUMMARY: PG receptor antagonism, IP
- Assay type: biochemical
- Design: unit not given here
- APPLIED CONDITIONS: antagonist activity at IP receptor
QUANTITY NAME: IP

compound="CCCCCCCCNC(=O)c1coc(C2C3CCC(O3)C2Cc2cc(F)ccc2/C=C/C(=O)NS(=O)(=O)CC)n1 (stereo not shown) [Example 7]" quantity_name=IP measured_result=3500
compound="O=C(/C=C/c1ccc(F)cc1C[C@@H]1C(c2nc(C(=O)NCCCCC3CCCCC3)co2)C2CC[C@H]1O2)NS(=O)(=O)c1ccccc1 (stereo partly shown) [Example 6]" quantity_name=IP measured_result=1500

a: CCS(=O)(=O)NC(=O)/C=C/c1ccc(F)cc1C[C@@H]1C(c2nc(C(=O)NCCCCC3CCCCC3)co2)C2CC[C@H]1O2 (stereo partly shown) [Example 2]
b: CCCCCCCCCNC(=O)c1coc(C2C3CCC(O3)C2Cc2cc(F)ccc2CCC(=O)NS(=O)(=O)C(F)(F)F)n1 (stereo not shown) [Example 8]
Endpoint returns the identifier whose IP is numerically larger, either a or b . Return value: the label identifying the chosen record.
b
(b: 3300, a: 1100)

* * *

- ASSAY TARGET: EP4 receptor (Homo sapiens, UniProt P35408)
- Sequence (P35408 whole entry): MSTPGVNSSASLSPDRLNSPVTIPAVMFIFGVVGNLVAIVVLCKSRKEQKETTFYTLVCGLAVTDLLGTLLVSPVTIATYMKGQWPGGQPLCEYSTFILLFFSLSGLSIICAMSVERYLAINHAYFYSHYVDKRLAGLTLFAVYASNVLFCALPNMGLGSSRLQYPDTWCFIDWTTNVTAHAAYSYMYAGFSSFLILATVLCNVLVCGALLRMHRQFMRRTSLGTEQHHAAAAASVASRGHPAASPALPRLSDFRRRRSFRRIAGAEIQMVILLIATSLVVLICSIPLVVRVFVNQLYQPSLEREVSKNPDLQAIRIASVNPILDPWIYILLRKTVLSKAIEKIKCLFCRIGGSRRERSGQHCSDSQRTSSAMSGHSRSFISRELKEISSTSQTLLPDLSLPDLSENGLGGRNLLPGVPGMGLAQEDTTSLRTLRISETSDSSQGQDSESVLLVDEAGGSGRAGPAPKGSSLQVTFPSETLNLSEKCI
- PROTOCOL SUMMARY: PG receptor antagonism, EP4
- Type: biochemical
- Design: unit not given here
- APPLIED CONDITIONS: antagonist activity at EP4 receptor
QUANTITY NAME: EP4

1: CCCCCCCCNC(=O)c1coc(C2C3CCC(O3)C2Cc2cc(F)ccc2/C=C/C(=O)NS(=O)(=O)CC)n1 (stereo not shown) [Example 7]
2: O=C(O)/C=C/c1ccc(F)cc1C[C@@H]1C(c2nc(C(=O)NCCCCC3CCCCC3)co2)C2CC[C@H]1O2 (stereo partly shown) [Example 1]
3: CS(=O)(=O)NC(=O)/C=C/c1ccc(F)cc1C[C@@H]1C(c2nc(C(=O)NCCCCC3CCCCC3)co2)C2CC[C@H]1O2 (stereo partly shown) [Example 3]
4: O=C(/C=C/c1ccc(F)cc1C[C@@H]1C(c2nc(C(=O)NCCCCC3CCCCC3)co2)C2CC[C@H]1O2)NS(=O)(=O)c1ccccc1 (stereo partly shown) [Example 6]
# desc sort on EP4 across 4 compounds Please, when replying, give the labels in the order that was requested.
4, 1, 3, 2
(4: 380, 1: 200, 3: 100, 2: 60)

* * *

- ASSAY TARGET: DP receptor (Homo sapiens, UniProt Q13258)
- Sequence (Q13258 whole entry): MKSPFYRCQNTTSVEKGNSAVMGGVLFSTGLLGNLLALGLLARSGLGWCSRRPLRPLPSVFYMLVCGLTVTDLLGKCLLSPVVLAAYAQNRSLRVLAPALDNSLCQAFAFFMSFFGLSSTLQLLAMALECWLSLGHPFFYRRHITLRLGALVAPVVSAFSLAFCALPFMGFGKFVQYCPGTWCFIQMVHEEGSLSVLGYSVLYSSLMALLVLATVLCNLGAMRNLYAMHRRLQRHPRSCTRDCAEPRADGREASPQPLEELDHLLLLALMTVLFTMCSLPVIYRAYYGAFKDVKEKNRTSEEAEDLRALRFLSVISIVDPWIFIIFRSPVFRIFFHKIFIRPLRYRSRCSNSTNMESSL
- PROTOCOL SUMMARY: PG receptor antagonism, DP
- Assay type: biochemical
- Set-up: unit not given here
- APPLIED CONDITIONS: antagonist activity at DP receptor
QUANTITY NAME: DP

compound="CCS(=O)(=O)NC(=O)/C=C/c1ccc(F)cc1C[C@@H]1C(c2nc(C(=O)NCCCCC3CCCCC3)co2)C2CC[C@H]1O2 (stereo partly shown)" measured_result=50
compound="CCCCCCCCNC(=O)c1coc(C2C3CCC(O3)C2Cc2cc(F)ccc2/C=C/C(=O)NS(=O)(=O)CC)n1 (stereo not shown)" measured_result=45

P: CCCCCCCCCNC(=O)c1coc(C2C3CCC(O3)C2Cc2cc(F)ccc2CCC(=O)NS(=O)(=O)C(F)(F)F)n1 (stereo not shown)
Q: O=C(O)/C=C/c1ccc(F)cc1C[C@@H]1C(c2nc(C(=O)NCCCCC3CCCCC3)co2)C2CC[C@H]1O2 (stereo partly shown)
Select the item whose DP value is smaller, choosing between P and Q . Write down the label attached to your selection.
P
